molecular target: Recombinant Human Poly(ADP-Ribose) Polymerase (PARP), PARP-1 (Homo sapiens (Human), UniProt P09874); conditions: read-out: PARP-1 (Ki); Table 1; text calls the values EC50s
Sequence (P09874 whole entry): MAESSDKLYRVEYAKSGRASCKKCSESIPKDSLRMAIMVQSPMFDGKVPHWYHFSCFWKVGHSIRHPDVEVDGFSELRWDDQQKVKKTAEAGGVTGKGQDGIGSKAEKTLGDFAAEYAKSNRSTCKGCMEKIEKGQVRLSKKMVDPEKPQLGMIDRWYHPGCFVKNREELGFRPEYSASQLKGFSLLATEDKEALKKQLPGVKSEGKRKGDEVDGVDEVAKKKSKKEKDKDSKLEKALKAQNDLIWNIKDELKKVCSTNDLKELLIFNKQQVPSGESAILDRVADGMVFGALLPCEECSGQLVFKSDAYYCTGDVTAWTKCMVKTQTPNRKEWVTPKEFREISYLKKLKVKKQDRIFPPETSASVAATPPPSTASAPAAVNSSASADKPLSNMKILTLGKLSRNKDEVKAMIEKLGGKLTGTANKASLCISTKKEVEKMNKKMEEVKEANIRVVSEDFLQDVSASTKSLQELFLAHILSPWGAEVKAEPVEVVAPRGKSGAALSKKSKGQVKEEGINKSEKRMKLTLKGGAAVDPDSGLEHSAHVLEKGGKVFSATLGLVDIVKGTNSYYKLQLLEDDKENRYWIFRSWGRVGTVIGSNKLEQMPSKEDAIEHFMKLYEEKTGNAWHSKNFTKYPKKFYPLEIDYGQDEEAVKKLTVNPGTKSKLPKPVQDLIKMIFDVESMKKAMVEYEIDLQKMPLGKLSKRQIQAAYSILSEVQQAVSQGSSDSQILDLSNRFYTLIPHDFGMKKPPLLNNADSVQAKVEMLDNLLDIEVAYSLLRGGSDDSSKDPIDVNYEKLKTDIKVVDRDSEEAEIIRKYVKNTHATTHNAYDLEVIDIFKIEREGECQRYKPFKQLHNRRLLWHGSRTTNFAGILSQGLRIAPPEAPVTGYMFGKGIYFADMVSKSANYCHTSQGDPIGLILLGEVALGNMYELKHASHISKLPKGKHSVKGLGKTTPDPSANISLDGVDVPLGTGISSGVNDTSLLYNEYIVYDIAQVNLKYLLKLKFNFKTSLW
pKi values by entry
Please note pKi is a logarithmic value: minus log10 of concentration in mol/L. Answer with that number alone.

Below are worked cases with known answers.
entrySmiles | assayEndpoint | dataValue
CN1CCCN(C(=O)c2cccc(Cc3n[nH]c(=O)c4c3CCCC4)c2)CC1 | pKi | 8.00
O=C(c1cccc(-c2cc(CCc3n[nH]c(=O)c4c3CCCC4)ccc2F)c1)N1CCOCC1 | pKi | 6.18
O=C(c1ccncc1)N1CCN(C(=O)c2cc(Cc3n[nH]c(=O)c4c3CCCC4)ccc2F)CC1 | pKi | 8.85

May I ask what pKi has been recorded for O=C(c1cccc(-c2cc(CCc3n[nH]c(=O)c4c3CCCC4)ccc2F)c1)N1CCCC1 ?
5.98

* * *

target: Recombinant Human Poly(ADP-Ribose) Polymerase (PARP), PARP-1 (Homo sapiens (Human)); conditions: read-out: PARP-1 (Ki); Table 1; text calls the values EC50s
assayEndpoint: pKi
Please note pKi is a logarithmic value: minus log10 of concentration in mol/L. Answer with that number alone.

Entry O=C(NCCc1ccc(Cl)cc1)c1cccc(Cc2n[nH]c(=O)c3c2CCCC3)c1 , system Recombinant Human Poly(ADP-Ribose) Polymerase (PARP), PARP-1 (Homo sapiens (Human)): what pKi was measured?
7.51

Entry CCC(C)C(C(=O)Nc1cccc(Cc2n[nH]c(=O)c3c2CCCC3)c1)c1ccccc1 (centres unmarked) , system Recombinant Human Poly(ADP-Ribose) Polymerase (PARP), PARP-1 (Homo sapiens (Human)): what pKi was measured?
5.77

Entry O=C(NC1CCN(C(=O)c2cc(Cc3n[nH]c(=O)c4c3NCCC4)ccc2F)CC1)c1cscn1 , system Recombinant Human Poly(ADP-Ribose) Polymerase (PARP), PARP-1 (Homo sapiens (Human)): what pKi was measured?
8.82

Entry CC1CCCN1C(=O)c1cccc(Cc2n[nH]c(=O)c3c2CCCC3)c1 (centres unmarked) , system Recombinant Human Poly(ADP-Ribose) Polymerase (PARP), PARP-1 (Homo sapiens (Human)): what pKi was measured?
8.00

Entry O=C(c1cccc(Cc2n[nH]c(=O)c3c2CCCC3)c1)N1CCC(n2c(=O)[nH]c3ccccc32)CC1 , system Recombinant Human Poly(ADP-Ribose) Polymerase (PARP), PARP-1 (Homo sapiens (Human)): what pKi was measured?
8.22

Entry O=c1[nH]nc(Cc2cccc(NS(=O)(=O)c3ccccc3)c2)c2c1CCCC2 , system Recombinant Human Poly(ADP-Ribose) Polymerase (PARP), PARP-1 (Homo sapiens (Human)): what pKi was measured?
6.24

Entry O=C(c1cccc(Cc2n[nH]c(=O)c3c2CCCC3)c1)N(Cc1ccccc1)Cc1ccccc1 , system Recombinant Human Poly(ADP-Ribose) Polymerase (PARP), PARP-1 (Homo sapiens (Human)): what pKi was measured?
6.92

Entry O=C(c1cc(Cc2n[nH]c(=O)c3c2NCCC3)ccc1F)N1CCN(C(=O)N2CCCCC2)CC1 , system Recombinant Human Poly(ADP-Ribose) Polymerase (PARP), PARP-1 (Homo sapiens (Human)): what pKi was measured?
8.40

* * *

target: PARP in C41 cells (Homo sapiens (Human), UniProt P09874); test: cell-based; settings: EC50 generally ranged, range over all assays
Sequence (P09874 whole entry): as above
assayEndpoint: EC50

May I ask what EC50 has been recorded for CCCN1CCC(c2nc3cccc(C(N)=O)c3[nH]2)CC1 ?
1 to 13 nM

* * *

biological target: Recombinant Human Poly(ADP-Ribose) Polymerase (PARP), PARP-1 (Homo sapiens (Human)); details: read-out: PARP-1 (Ki); Table 1; text calls the values EC50s
assayEndpoint: pKi
Please note pKi is a logarithmic value: minus log10 of concentration in mol/L. Answer with that number alone.

Below are worked cases with known answers.
compound | dataValue
NC(=O)C1CCN(C(=O)c2cc(Cc3n[nH]c(=O)c4c3CCCC4)ccc2F)CC1 [Example 498] | 8.57
CCN(CCNC(=O)c1c(F)cccc1F)C(=O)c1cc(Cc2n[nH]c(=O)c3c2CCCC3)ccc1F [Example 762] | 9.00
O=C(c1cc(Cc2n[nH]c(=O)c3c2CCCC3)ccc1F)N1CCN(Cc2ccccc2Cl)CC1 [Example 518] | 8.00

May I ask what pKi has been recorded for Cc1cc(NC(=O)c2cccc(Cc3n[nH]c(=O)c4c3CCCC4)c2)ccc1F [Example 341] ?
6.81

* * *

molecular target: PARP in C41 cells (Homo sapiens (Human)); experiment: cell-based; conditions: mean EC50 for all assays carried out, n=270
assayEndpoint: pEC50
Please note pEC50 is a logarithmic value: minus log10 of concentration in mol/L. Answer with that number alone.

Entry CCCN1CCC(c2nc3cccc(C(N)=O)c3[nH]2)CC1 , system PARP in C41 cells (Homo sapiens (Human)): what pEC50 was measured?
8.49

* * *

target: PARP in C41 cells (Homo sapiens (Human), UniProt P09874); conditions: Table 3; C41 cells; ratio to comparator EC50
Cell EC50 ratio values by entry
Respond numerically, and do not add a unit to the figure.

Below are worked cases with known answers.
compound | Cell EC50 ratio
O=C1CCCN1c1cccc(Cc2n[nH]c(=O)c3c2CCCC3)c1 [drawing 16] | 40.9
NC(=O)C1CCN(C(=O)c2cccc(Cc3n[nH]c(=O)c4c3CCCC4)c2)CC1 [drawing 48] | 215
CN1CCN(CCNC(=O)c2cc(Cc3n[nH]c(=O)c4c3CCCC4)ccc2F)CC1 [drawing 55] | 0.6

Moving on to another compound below.
May I ask what Cell EC50 ratio has been recorded for COc1ccc(C(=O)CCC(=O)Nc2cccc(Cc3n[nH]c(=O)c4c3CCCC4)c2)cc1 [drawing 14] ?
20.9

* * *

pKi values by entry
molecular target: Recombinant Human Poly(ADP-Ribose) Polymerase (PARP), PARP-1 (Homo sapiens (Human)); conditions: read-out: PARP-1 (Ki); Table 1; text calls the values EC50s
Please note pKi is a logarithmic value: minus log10 of concentration in mol/L. Answer with that number alone.

Below are worked cases with known answers.
entrySmiles | dataValue
O=C(Nc1cccc(Cc2n[nH]c(=O)c3c2CCCC3)c1)c1ccco1 | 7.00
O=C(Nc1cccc(Cc2n[nH]c(=O)c3c2CCCC3)c1)c1cscn1 | 6.75
O=C(c1cc(Cc2n[nH]c(=O)c3c2CCCC3)ccc1F)N1CCN(CCOc2ccccc2)CC1 | 8.52
CC1(C)SCN[C@@H]1C(=O)N1CCN(C(=O)c2cc(Cc3n[nH]c(=O)c4c3CCCC4)ccc2F)CC1 | 8.82
O=C(c1ccc2[nH]cnc2c1)N1CCN(C(=O)c2cc(Cc3n[nH]c(=O)c4c3CCCC4)ccc2F)CC1 | 8.96

Entry O=c1[nH]nc(Cc2cccc(-c3cccc(CNC4CCCC4)c3)c2)c2c1CCCC2 , system Recombinant Human Poly(ADP-Ribose) Polymerase (PARP), PARP-1 (Homo sapiens (Human)): what pKi was measured?
7.37

Entry Cn1cccc1C(=O)Nc1cccc(Cc2n[nH]c(=O)c3c2CCCC3)c1 , system Recombinant Human Poly(ADP-Ribose) Polymerase (PARP), PARP-1 (Homo sapiens (Human)): what pKi was measured?
6.24

Entry O=C1CC[C@@H]2COc3ccc(Cc4n[nH]c(=O)c5c4CCCC5)cc3N12 , system Recombinant Human Poly(ADP-Ribose) Polymerase (PARP), PARP-1 (Homo sapiens (Human)): what pKi was measured?
7.85

Entry CN1CCC(CNC(=O)c2cccc(Cc3n[nH]c(=O)c4c3CCCC4)c2)CC1 , system Recombinant Human Poly(ADP-Ribose) Polymerase (PARP), PARP-1 (Homo sapiens (Human)): what pKi was measured?
7.74

Entry O=C(OCc1ccccc1)N1CCCN(C(=O)c2cc(Cc3n[nH]c(=O)c4c3NCCC4)ccc2F)CC1 , system Recombinant Human Poly(ADP-Ribose) Polymerase (PARP), PARP-1 (Homo sapiens (Human)): what pKi was measured?
8.60

Entry O=c1[nH]nc(Cc2cccc(NS(=O)(=O)c3cccs3)c2)c2c1CCCC2 , system Recombinant Human Poly(ADP-Ribose) Polymerase (PARP), PARP-1 (Homo sapiens (Human)): what pKi was measured?
6.20

Entry O=C(c1cc(Cc2n[nH]c(=O)c3c2NCCC3)ccc1F)N1CCN(C(=O)C2CCCCC2)CC1 , system Recombinant Human Poly(ADP-Ribose) Polymerase (PARP), PARP-1 (Homo sapiens (Human)): what pKi was measured?
8.96

Entry CN(C(=O)Nc1cc(Cc2n[nH]c(=O)c3c2CCCC3)ccc1F)c1ccccc1 , system Recombinant Human Poly(ADP-Ribose) Polymerase (PARP), PARP-1 (Homo sapiens (Human)): what pKi was measured?
7.39

Entry O=C(NCCc1ccc(Oc2ccccc2)cc1)c1cccc(Cc2n[nH]c(=O)c3c2CCCC3)c1 , system Recombinant Human Poly(ADP-Ribose) Polymerase (PARP), PARP-1 (Homo sapiens (Human)): what pKi was measured?
7.08

Entry Cc1ccc(NC(=O)c2cccc(Cc3n[nH]c(=O)c4c3CCCC4)c2)cc1Cl , system Recombinant Human Poly(ADP-Ribose) Polymerase (PARP), PARP-1 (Homo sapiens (Human)): what pKi was measured?
6.87

Entry O=C(c1cc(Cc2n[nH]c(=O)c3c2CCCC3)ccc1F)N1CCN(C(=O)N2CCCC2)CC1 , system Recombinant Human Poly(ADP-Ribose) Polymerase (PARP), PARP-1 (Homo sapiens (Human)): what pKi was measured?
9.05

Where do the numbers come from? From patent US9283222B2.
